// data source = a protein production outcome set (Wang et al. 2014)

Assay: label from the status in PepcDB records
property-label: protein production

**Query** Tell us which protein production value is on record for EQMTRDEIEYMLSKSEATLDAEEIEMLQGVFSLDEMMAREVMVPRTDAFMIDINDDPLENIQEILKQSFSRIPVYDVDKDKIIGLIHTKRLLESGFRQGFDQINMRKMLQEPLFVPETIFVDDLLRQLRNTQNQMAILLDEYGGVAGLVTLEDLLEEIVGEID
**Result** failed

**Query** Tell us which protein production value is on record for MPGKLTATILTRNEAANIGDCIDSLAQLADEVIVLDSGSTDATRDIARARGANVIEDDGPWPGFGPQKNRALDRATGEWVLSIDADERVPPELAQEIRTAMARADADAYAIPRLSQFCGAWVHHSGWRPDHVIRLFRRGKARFSENLVHESLQVTGNVARLRTSLLHYSYTSMDQVHRKSAQYAEAGARDLTQRGKHIGALSPVLHGTWAFVRTLVLRRGFLDGGTGLAIARMNATVSYRKYRRARELASGANHRPLEHHHHHH
**Result** failed

* * *

Experiment: label from the status in PepcDB records
property-label: protein production

Worked set:
**Query** Tell us which protein production value is on record for MVINIRRSRPDEGDKLTAIWCRSVDATHDFLTKAYRKELEEMVRAFLPEAPLWVAVSTEDQPIAFMLLTGDHMDALFVDPDVRGCGVGKLLIEHALSLTPKLTTNVNEQNEQAVGFYQKMGFRVTGRSETDDLGQPYPLLNLMYEQQAEADYD
**Result** not failed

**Query** Tell us which protein production value is on record for MRHMSGDHAALVLGAGAGRRLGRSKQLLMRDGEPLLRRAARIALLTAPRRCVVVLGADADTLSEVLQDLDIEILRHPDWSEGMGSSLAALRRHVQGDPALRRSLILGCDQPALDAPHLRSLLEEADRAVSGCATSGYSGVRGIPAVVTHTAWADVPLQADSGLRGLFASLDMQSLGCVSAPALALDIDTPADLATAQQRGWVDAELEHHHHHH
**Result** failed

**Query** Tell us which protein production value is on record for MQMSEKFKQIRARLRLPVLVAPMLRISGPALVAASCSNGVIGSFPTVNARTPDQLDRWIDEIKQAVSAAGAYDAPYCANILARSDPDKLQADLKILIKHKVEIVLVSTGAPEKYVKPLQDIGCFVIADVASIRHARKALQQGVDGLALLTAGAGGQTGWANGFAFVRAIRDFYDGPLLLAGGVSDGQALWAARTLGCDLGLMGTRFIGTQECDASDGYKAMLVDSSIDDVVLTRGISGIDANFLRPSIIACGLDPQELVAPVSPERAREMFSSYADGMRGPKRWVDLWSAGHTVSGVKVVQSVSEVVDQLAVEYTRAQRATRAPLADADDPAI
**Result** failed

**Query** Tell us which protein production value is on record for FRPHFLQAPGDLTVQEGKLCRMDCKVSGLPTPDLSWQLDGKPVRPDSAHKMLVRENGVHSLIIEPVTSRDAGIYTCIATNRAGQNSFSLELVVAAKE
**Result** not failed

**Query** Tell us which protein production value is on record for MNATLIDCCDPQKPSRVLFHFLILDAPSPSNLPTYIKELQHRGVRHLVRVCGPTYDATLVKSRGIDVHSWPFDDGAPPTRAVLDSWLKLLDTELARQQEDPSVPPPTIGVHCVAGLGRAPILVALALVEYGNVSALDAIALIREKRKGAINQTQMHWITKYKR
**Result** not failed

**Query** Tell us which protein production value is on record for MMDRDDDGYAERVAFYDTVYEQPERALDLAWLRRWLPPQFFGRRVLELACGSGYWTQYLAPAARAYQALDVSAGALALAGQRPGVGGVAFAVGEVETLPRPAQPFDAVFAGLWFSHLPRQRREGALAALHGCLAPGATVILLDNSEAQGGQFPVVEYDSEGNGYQSRPRHDGGQSRVLKNFPTEAEFRILLAPYGAAEIALMRREHFWLLRYRLPSRH
**Result** failed

**Query** Tell us which protein production value is on record for MSVKKERVDVLLVERGLIETREKAKRAIMAGLVYANEMRLDKPGEKISQDTEITVKGQVMPYVSRGGYKLEKALETFHLDLQDKVMIDIGSSTGGFTDCALQNGAKLSYALDVGYNQLAWKLRQDERVVVMERTNFRYVTPADLERGLPQFASIDVSFISLKLILPVLKTMLMPNGDVAALIKPQFEAGREQVGKKGIVRDRKVHEAVVEMIVEFALKEGYDVEGLTFSPITGGDGNIEFLIHLKWHGERENGENHSPISIEQVVTEAHEVLKQKGKGE
**Result** failed

**Query** Tell us which protein production value is on record for MLLFWLEFIGIFIAIFVSAELLAKGADELEDFLGQGITGGIILGFLTALPETIFVIVASLEGSFDVALGSAIGGNVLLFTLGIGLVGVFYAFKWRTALQISSEYSVENVFLVLTTIGMLLVLIYGKLNIISGLLLILIYVIYVVYRVAKFRREGMEREKGNLMKPVGFIIAGGVLLVVFSHYFVEYINEIAIMFNVPAIWLSLVIAPIAGELEEKISAFRLVLMSKDGGSLSILSFVGSKIENATVLLGIIGIFTDYELQQALPEYASSLIANMIALYVLFDKRLKTFESVILIGVYVIIVILSFYL
**Result** failed

More entries:
**Query** Tell us which protein production value is on record for MPKVTVSIKVVPAVEDGRLHEVIDRAIEKISSWGMKYEVGPSNTTVEGEFEEIMDRVKELARYLEQFAKRFVLQLDIDYKAGGITIEEKVSKYR
**Result** not failed

**Query** Tell us which protein production value is on record for NSTWSGESKTLVLSNLSYSATEETLQEVFEKATFIKVPQNQNGKSKGYAFIEFASFEDAKEALNSCNKREIEGRAIRLELQGPRGSPN
**Result** not failed
